Origin of the recorded values: patent US9624228B2

Target: ERK2 enzyme (Homo sapiens (Human), UniProt P28482)
Sequence (P28482 whole entry): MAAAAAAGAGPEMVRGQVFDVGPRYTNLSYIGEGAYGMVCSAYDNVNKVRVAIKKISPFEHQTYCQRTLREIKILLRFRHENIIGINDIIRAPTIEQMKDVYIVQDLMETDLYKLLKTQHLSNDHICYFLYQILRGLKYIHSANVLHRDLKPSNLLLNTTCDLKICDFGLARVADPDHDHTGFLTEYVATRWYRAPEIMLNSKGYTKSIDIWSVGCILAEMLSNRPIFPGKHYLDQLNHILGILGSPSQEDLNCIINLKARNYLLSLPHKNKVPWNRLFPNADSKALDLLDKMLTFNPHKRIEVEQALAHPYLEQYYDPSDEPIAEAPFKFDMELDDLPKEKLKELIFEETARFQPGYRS
Assay: Inhibition assay of ERK (Z'-LYTE kinase assay, Ser/Thr 3 peptide substrate)
Type: biochemical
Conditions: In vitro, ERK2 enzyme 0.47 ng/μL, 100 μM ATP
pIC50: −log10 of the molar value.
# reported pIC50; entries follow

- COMPOUND: "Cc1cc(-c2n[nH]c3cc4c(cc23)CN([C@@H]2CN(C(C)C)C[C@H]2c2ccccc2)C(=O)N4)ccn1 (racemic)"
  ASSAYED_TARGET: "ERK2 enzyme (Homo sapiens (Human), UniProt P28482)"
  pIC50: "> 7.30"
- COMPOUND: "Cc1cc(-c2n[nH]c3cc4c(cc23)CN([C@@H]2CN(C3CCOCC3)C[C@H]2c2ccccc2)C(=O)N4)ccn1 (mixture of isomers)"
  ASSAYED_TARGET: "ERK2 enzyme (Homo sapiens (Human), UniProt P28482)"
  pIC50: "6.60 to 7.30"
- COMPOUND: "Cc1cc(-c2n[nH]c3cc4c(cc23)CN([C@@H]2CN(CC(F)(F)F)C[C@H]2c2ccccc2)C(=O)N4)cc(C)n1 [Compound 242]"
  ASSAYED_TARGET: "ERK2 enzyme (Homo sapiens (Human), UniProt P28482)"
  pIC50: "6.60 to 7.30"

Field: next compound
Reported pIC50, compound Cc1cc(-c2n[nH]c3cc4c(cc23)CN([C@H]2CN(Cc3ccccc3)CC(F)(F)C2)C(=O)N4)ccn1 : ____
> 7.30

* * *

Target: ERK2 enzyme (Homo sapiens (Human), UniProt P28482)
Assay: Inhibition assay of ERK (Z'-LYTE kinase assay, Ser/Thr 3 peptide substrate)
Assay type: biochemical
Details: In vitro ERK2 enzyme, 100 μM ATP
pIC50: −log10 of the molar value.
QUANTITY_KIND: pIC50

- COMPOUND: "COc1ccc(-c2n[nH]c3cc4c(cc23)CN(Cc2cccc(Cl)c2)C(=O)N4)cn1 [Compound 75]"
  ASSAYED_TARGET: "ERK2 enzyme (Homo sapiens (Human), UniProt P28482)"
  pIC50: "> 7.30"
- COMPOUND: "Cc1cc(-c2n[nH]c3cc4c(cc23)CN([C@@H]2CCCN(Cc3csc(C)n3)C2)C(=O)N4)ccn1 [Compound 140]"
  ASSAYED_TARGET: "ERK2 enzyme (Homo sapiens (Human), UniProt P28482)"
  pIC50: "> 7.30"
- COMPOUND: "Cc1cc(-c2n[nH]c3cc4c(cc23)CN(C2CN(CCc3ccccc3)C2)C(=O)N4)ccn1 [Compound 192]"
  ASSAYED_TARGET: "ERK2 enzyme (Homo sapiens (Human), UniProt P28482)"
  pIC50: "6.60 to 7.30"
- COMPOUND: "Cc1cc(-c2n[nH]c3cc4c(cc23)CN([C@@H]2CCCN(Cc3cccc(Cl)c3)C2)C(=O)N4)ccn1 [Compound 156]"
  ASSAYED_TARGET: "ERK2 enzyme (Homo sapiens (Human), UniProt P28482)"
  pIC50: "> 7.30"

Reported pIC50, compound Cc1cc(-c2n[nH]c3cc4c(cc23)CN([C@@H]2CCCN(CC3(C)CC3)C2)C(=O)N4)ccn1 [Compound 182] : ____
6.60 to 7.30

Reported pIC50, compound COc1ncc(-c2n[nH]c3cc4c(cc23)CN([C@H](C)c2cccc(C#N)c2)C(=O)N4)cn1 [Compound 100] : ____
> 7.30

Reported pIC50, compound Cn1cc(-c2n[nH]c3cc4c(cc23)CN(Cc2ccc(F)c(Cl)c2)C(=O)N4)cn1 [Compound 31] : ____
> 7.30

Reported pIC50, compound Cc1cc(-c2n[nH]c3cc4c(cc23)CN(C(C)CC(C)C)C(=O)N4)ccn1 (stereo not shown) [Compound 53] : ____
> 7.30

Reported pIC50, compound Cc1cc(-c2n[nH]c3cc4c(cc23)CN(Cc2cc(F)cc(F)c2)C(=O)N4)ccn1 [Compound 7] : ____
> 7.30

Reported pIC50, compound Cc1cc(-c2n[nH]c3cc4[nH]c(=O)c(C(C)C5CCCCC5)cc4cc23)ccn1 (stereo not shown) [Compound 160] : ____
6.60 to 7.30

Reported pIC50, compound Cc1cc(-c2n[nH]c3cc4c(cc23)CN(Cc2ccc(F)c(Cl)c2)C(=O)N4)ccn1 [Compound 8] : ____
> 7.30

Reported pIC50, compound Cc1cc(-c2n[nH]c3cc4[nH]c(=O)n(Cc5cccc(Cl)c5)c(=O)c4cc23)ccn1 [Compound 24] : ____
6.60 to 7.30

Reported pIC50, compound Cc1ccc(-c2n[nH]c3cc4c(cc23)CN(Cc2cccc(Cl)c2)C(=O)N4)cn1 [Compound 58] : ____
> 7.30

Reported pIC50, compound Cc1cc(-c2n[nH]c3cc4c(cc23)CN([C@@H]2CCCN(Cc3ccccn3)C2)C(=O)N4)ccn1 [Compound 171] : ____
6.60 to 7.30

Reported pIC50, compound [2H]C([2H])(c1ccccc1)N1CCC[C@@H](N2Cc3cc4c(-c5ccnc(C)c5)n[nH]c4cc3NC2=O)C1 [Compound 148] : ____
> 7.30

Reported pIC50, compound Cc1cccc(-c2n[nH]c3cc4c(cc23)CN(Cc2cccc(Cl)c2)C(=O)N4)n1 [Compound 108] : ____
6.60 to 7.30
